# test.summary: Metabolic stability in human liver microsomes
# Format: in vitro ADME
# protocol.conditions: liver microsomes (pooled); human liver microsomes 0.5 mg/mL, test compound 1.0 μM, 37° C., NADPH
reported.property: half-life at 1 μM

half-life at 1 μM measured on COc1ccc2c(ccn2C[C@@H](C)N(C)C)c1 [AAZ-A-154, reference compound] = 1.42 h

half-life at 1 μM measured on [2H]C([2H])([2H])N(C([2H])([2H])[2H])[C@]([2H])(C([2H])([2H])[2H])C([2H])([2H])n1ccc2cc(OC)ccc21 = 1.82 h

Please fill in: half-life at 1 μM reported for [2H]C([2H])([2H])[C@@]([2H])(N(C)C)C([2H])([2H])n1ccc2cc(OC)ccc21 = 1.59 h

Memo: [2H]C([2H])([2H])Oc1ccc2c(ccn2C([2H])([2H])[C@]([2H])(N(C([2H])([2H])[2H])C([2H])([2H])[2H])C([2H])([2H])[2H])c1 , reported half-life at 1 μM: 1.91 h

So for [2H]C([2H])([2H])Oc1ccc2c(ccn2C([2H])([2H])[C@]([2H])(N(C)C)C([2H])([2H])[2H])c1 , the logged half-life at 1 μM turned out to be 2 h

###

# test.summary: Metabolic stability in human liver microsomes
# Type: in vitro ADME
# protocol.conditions: liver microsomes (pooled); human liver microsomes; intrinsic clearance = 0.693/T1/2/mg microsome protein per mL; read-out: CLint(mic)
reported.property: microsomal CLint at 1 μM (µL/min/mg)
Answer in µL/min/mg, number only, no unit symbol.

Observe how each entry below is paired with its result.
molecule	microsomal CLint at 1 μM [µL/min/mg]
[2H]C([2H])([2H])N(C([2H])([2H])[2H])[C@]([2H])(C([2H])([2H])[2H])C([2H])([2H])n1ccc2cc(OC)ccc21 [Compound 6]	12.7
COc1ccc2c(ccn2C[C@@H](C)N(C)C)c1 [AAZ-A-154, reference compound]	16.4
[2H]C([2H])([2H])Oc1ccc2c(ccn2C([2H])([2H])[C@]([2H])(N(C([2H])([2H])[2H])C([2H])([2H])[2H])C([2H])([2H])[2H])c1 [Compound 152]	12.4
[2H]C([2H])([2H])Oc1ccc2c(ccn2C([2H])([2H])[C@]([2H])(N(C)C)C([2H])([2H])[2H])c1 [Compound 151]	11.5

Kindly review the next molecule as well.
Consider [2H]C([2H])([2H])[C@@]([2H])(N(C)C)C([2H])([2H])n1ccc2cc(OC)ccc21 [Compound 5] . Its measured microsomal CLint at 1 μM is 15

###

Each record here notes measured inhibition at 0.1 µM.
# assay.target: 5-HT2A receptor (Homo sapiens, UniProt P28223)
# Construct: host or cells: unnamed cell lines
# Sequence (P28223 whole entry): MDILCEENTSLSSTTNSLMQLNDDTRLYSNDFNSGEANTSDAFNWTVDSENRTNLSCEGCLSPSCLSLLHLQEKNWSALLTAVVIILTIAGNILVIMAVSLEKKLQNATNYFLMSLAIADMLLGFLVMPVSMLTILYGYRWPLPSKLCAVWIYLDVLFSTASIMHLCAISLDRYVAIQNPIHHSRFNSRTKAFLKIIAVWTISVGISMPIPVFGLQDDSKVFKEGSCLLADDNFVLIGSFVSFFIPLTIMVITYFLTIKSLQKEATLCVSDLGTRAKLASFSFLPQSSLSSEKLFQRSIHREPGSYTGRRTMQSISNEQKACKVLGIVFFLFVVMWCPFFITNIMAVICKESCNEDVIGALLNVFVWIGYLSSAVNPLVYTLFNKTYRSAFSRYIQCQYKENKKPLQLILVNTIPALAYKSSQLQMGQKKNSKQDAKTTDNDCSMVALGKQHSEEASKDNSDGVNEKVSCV
# test.summary: Calcium mobilization assay, antagonist format, 5-HT2A
# Assay type: cell-based
# protocol.conditions: @100 nM; agonist challenge at EC80
Respond with the bare value in %.

// known answers, use as guide
molecule	reported.property	reported
C[C@H](Cn1ccc2cc(S(=O)(=O)C3CC3)ccc21)N(C)C	inhibition at 0.1 µM	-9.1
C[C@H](Cn1ccc2cc(S(F)(F)(F)(F)F)ccc21)N(C)C	inhibition at 0.1 µM	-0.8
COc1ccn2c(CC(C)N(C)C)cnc2c1 (racemic)	inhibition at 0.1 µM	-3.3

The molecule listed as C[C@H](Cn1ccc2c3c(ccc21)OCCC3)N(C)C has a reported inhibition at 0.1 µM of -7.3

Sure, the documented inhibition at 0.1 µM for [2H]C([2H])([2H])[C@@]([2H])(N(C)C)C([2H])([2H])n1ccc2cc(OC)ccc21 is -2.7

Quick note, inhibition at 0.1 µM for COc1ccn2c(CC(C)N(C)C)ncc2c1 (racemic) landed at 1.6

inhibition at 0.1 µM recorded for this molecule, COc1ccc2c(ccn2C[C@@H](C)N(C)C)c1 [AAZ-A-154, reference compound] , is 3.2

For reference, reported inhibition at 0.1 µM for C[C@H](Cn1ccc2cc(OC3CC3)ccc21)N(C)C stands at -13.2

Record summary for CC(Cc1ncn2cc(F)ccc12)N(C)C (racemic) : reported inhibition at 0.1 µM = 5.7
